Experiment: Pharmacokinetics study in Swiss albino mice
Type: in vivo
Settings: both sexes, Swiss albino, mouse, plasma; single IV 50 mg/kg, 8 h fasting, non-compartmental, mean; read-out: MRT, mean residence time
measured-metric: MRT (min)
Express your answer in min, writing the number without its unit.

// query MRT value for entry CC/C=C\[C@H](O)[C@H](O)C1=C(C)C(=O)[C@]2(O1)C(=O)N[C@@](OC)(C(=O)c1ccccc1)[C@@H]2O
44.4

====

Assay: Pharmacokinetics study in Swiss albino mice
Format: in vivo
Details: both sexes, Swiss albino, mouse, plasma; single IV 50 mg/kg, 8 h fasting, non-compartmental, mean; read-out: Vd, volume of distribution
measured-metric: Vd (L)
Express your answer in L, writing the number without its unit.

// query Vd value for entry CC/C=C\[C@H](O)[C@H](O)C1=C(C)C(=O)[C@]2(O1)C(=O)N[C@@](OC)(C(=O)c1ccccc1)[C@@H]2O
1.83

====

Test: Pharmacokinetics study in Swiss albino mice
Format: in vivo
Details: both sexes, Swiss albino, mouse, plasma, iv, 50 mg/kg, single IV 50 mg/kg, 8 h fasting, non-compartmental, mean; read-out: C0, initial plasma concentration
measured-metric: C0 (ng/mL)
Express your answer in ng/mL, writing the number without its unit.

// query C0 value for entry CC/C=C\[C@H](O)[C@H](O)C1=C(C)C(=O)[C@]2(O1)C(=O)N[C@@](OC)(C(=O)c1ccccc1)[C@@H]2O
37300

Entry source: paper PMC12525728
